- Tested on: RAW264.7
- Run Description: Anti-inflammatory activity in Mus musculus (mouse) RAW264.7 cells assessed as inhibition of IFN-gamma/LPS-induced NO production after 17 to 20 hr by Griess assay
- Format: functional, cell-based
- Measurement Conditions: read-out: IC50
Please respond with yes when measured IC50 is strictly beneath 10 µM, and with no in all other cases.

| Compound | Qualitative Label |
| --- | --- |
| Cc1ccc(C(=O)/C=C/c2ccccc2OCC(=O)O)o1 | no |
| Cc1cc(C(=O)/C=C/c2ccccc2OCC(=O)O)c(C)o1 | no |
| O=C(/C=C/c1ccc(O)cc1)c1ccc(Cl)s1 | no |
| Cc1ccc(C(=O)/C=C/c2cccc(Cl)c2)o1 | yes |
| COc1ccc(/C=C/C(=O)c2ccc(C)o2)c(F)c1 | yes |

Req: Check if IC50 falls below 10 µM for Cc1cc(C(=O)/C=C/c2ccc(O)cc2)c(C)o1 .
Resp: no

Req: # iterate: COc1ccc(OC)c(/C=C/C(=O)c2ccco2)c1
Resp: no

Req: # iterate: COc1cc(O)cc(O)c1C(=O)/C=C/c1ccccc1 [CARDAMOMIN]
Resp: no

Req: # iterate: Cc1ccc(C(=O)/C=C/c2ccc([N+](=O)[O-])cc2)o1
Resp: no

Req: # iterate: COc1ccc(OC)c(/C=C/C(=O)c2ccc(Cl)s2)c1
Resp: no

Req: # iterate: COc1cccc(OC)c1/C=C/C(=O)c1ccc(C)o1
Resp: yes

Req: # iterate: Cc1ccc(C(=O)/C=C/c2ccco2)o1
Resp: no

Req: # iterate: O=C(/C=C/c1ccccc1O)c1ccco1
Resp: no

Req: # iterate: COc1ccc(OC)c(/C=C/C(=O)c2ccc(C)o2)c1
Resp: yes

Req: # iterate: O=C(/C=C/c1ccc(O)cc1)c1cccs1
Resp: no

Req: # iterate: Cc1ccc(C(=O)/C=C/c2ccccc2Cl)o1
Resp: no

Req: # iterate: O=C(/C=C/c1ccc(O)cc1)c1ccncc1
Resp: no

Req: # iterate: O=C(/C=C/c1ccccc1O)c1ccncc1
Resp: no

Req: # iterate: Cc1ccc(C(=O)/C=C/c2cccc(O)c2)o1
Resp: yes

* * *

Entries and their measured IC50 follow.
- Test system: RAW264.7
- Run Description: Anti-inflammatory activity in Mus musculus (mouse) RAW264.7 cells assessed as inhibition of IFN-gamma/LPS-induced NO production after 17 to 20 hr by Griess assay
- Type: functional, cell-based
- Measurement Conditions: read-out: pIC50 (converted)

| Molecular String | Target Entity | Reported Value |
| --- | --- | --- |
| Cc1ccc(C(=O)/C=C/c2cccc(O)c2)o1 | RAW264.7 | 9.33 µM |
| Cc1ccc(C(=O)/C=C/c2cccc(F)c2)o1 | RAW264.7 | 16.2 µM |
| O=C(/C=C/c1cccc(O)c1)c1ccco1 | RAW264.7 | 24.5 µM |
| COc1ccc(/C=C/C(=O)c2ccc(C)o2)c(F)c1 | RAW264.7 | 12.3 µM |
| COc1cccc(/C=C/C(=O)c2ccc(C)o2)c1OC | RAW264.7 | 2.24 µM |
| Cc1ccc(C(=O)/C=C/c2ccco2)o1 | RAW264.7 | 21.4 µM |
| Cc1ccc(C(=O)/C=C/c2ccccc2Cl)o1 | RAW264.7 | 17 µM |
| O=C(/C=C/c1ccccc1O)c1ccco1 | RAW264.7 | 19.5 µM |

Req: Fill in the blank: the reported IC50 of Cc1ccc(C(=O)/C=C/c2ccc(O)cc2)o1 is ____.
Resp: 16.2 µM

Req: # iterate: COc1ccc(OC)c(/C=C/C(=O)c2ccco2)c1
Resp: 15.8 µM

Req: # iterate: Cc1ccc(C(=O)/C=C/c2ccc(F)cc2)o1
Resp: 17 µM

Req: # iterate: Cc1ccc(C(=O)/C=C/c2ccccc2F)o1
Resp: 12.9 µM

* * *

- System: RAW264.7
- Run Description: Anti-inflammatory activity in Mus musculus (mouse) RAW264.7 cells assessed as inhibition of IFN-gamma/LPS-induced NO production after 17 to 20 hr by Griess assay
- Type: functional, cell-based
- Measurement Conditions: read-out: IC50
pIC50: −log10 of the molar value.
Classify by measured pIC50: T if it is equal to or exceeds 5, F if it is smaller.

Completed entries (count: 5):
| Molecule | Target Entity | Qualitative Label |
| --- | --- | --- |
| Cc1ccc(C(=O)/C=C/c2cccc(F)c2)o1 | RAW264.7 | F |
| COc1cccc(/C=C/C(=O)c2ccc(C)o2)c1OC | RAW264.7 | T |
| Cc1ccc(C(=O)/C=C/c2ccccc2O)o1 | RAW264.7 | T |
| COc1cc(OC)c(/C=C/C(=O)c2ccc(C)o2)c(OC)c1 | RAW264.7 | T |
| O=C(/C=C/c1cccc(O)c1)c1ccccn1 | RAW264.7 | F |

Req: Answer whether pIC50 of O=C(/C=C/c1cccc(O)c1)c1ccco1 is greater than or equal to 5.
Resp: F

Req: # iterate: COC(=O)[C@@H](N)CCCNC(=N)N[N+](=O)[O-] [L-NAME]
Resp: F

Req: # iterate: O=C(/C=C/c1ccccc1O)c1cccs1
Resp: F

* * *

- Tested on: RAW264.7
- Run Description: Anti-inflammatory activity in Mus musculus (mouse) RAW264.7 cells assessed as inhibition of IFN-gamma/LPS-induced NO production after 17 to 20 hr by Griess assay
- Format: functional, cell-based
- Measurement Conditions: read-out: IC50
Assay Metric: pIC50
Would you please state pIC50, meaning minus log10 of the concentration in mol/L, as a bare number?

// below: answered molecules
| Molecular String | pIC50 |
| --- | --- |
| Cc1ccc(C(=O)/C=C/c2ccc(Cl)cc2)o1 | 4.94 |
| Cc1cc(C(=O)/C=C/c2cccc(O)c2)c(C)o1 | 5.10 |

Req: Item: O=C(/C=C/c1ccccc1O)c1ccccn1 Test system: RAW264.7 Read-out: pIC50 Value: ?
Resp: 4.52

Req: # iterate: COc1ccc(/C=C/C(=O)c2ccc(C)o2)c(OC)c1OC
Resp: 5.35

Req: # iterate: O=C(/C=C/c1ccc(O)cc1)c1ccco1
Resp: 4.60

Req: # iterate: Cc1ccc(C(=O)/C=C/c2ccc(O)cc2)o1
Resp: 4.79

Req: # iterate: O=C(/C=C/c1ccccc1O)c1ccc(Cl)s1
Resp: 4.63
